These data points were gathered from ChEMBL document CHEMBL3351449.

Below: a set of entries, each annotated with reported Activity.
Target: UniProtKB Q8NER1
Sequence (Q8NER1 whole entry): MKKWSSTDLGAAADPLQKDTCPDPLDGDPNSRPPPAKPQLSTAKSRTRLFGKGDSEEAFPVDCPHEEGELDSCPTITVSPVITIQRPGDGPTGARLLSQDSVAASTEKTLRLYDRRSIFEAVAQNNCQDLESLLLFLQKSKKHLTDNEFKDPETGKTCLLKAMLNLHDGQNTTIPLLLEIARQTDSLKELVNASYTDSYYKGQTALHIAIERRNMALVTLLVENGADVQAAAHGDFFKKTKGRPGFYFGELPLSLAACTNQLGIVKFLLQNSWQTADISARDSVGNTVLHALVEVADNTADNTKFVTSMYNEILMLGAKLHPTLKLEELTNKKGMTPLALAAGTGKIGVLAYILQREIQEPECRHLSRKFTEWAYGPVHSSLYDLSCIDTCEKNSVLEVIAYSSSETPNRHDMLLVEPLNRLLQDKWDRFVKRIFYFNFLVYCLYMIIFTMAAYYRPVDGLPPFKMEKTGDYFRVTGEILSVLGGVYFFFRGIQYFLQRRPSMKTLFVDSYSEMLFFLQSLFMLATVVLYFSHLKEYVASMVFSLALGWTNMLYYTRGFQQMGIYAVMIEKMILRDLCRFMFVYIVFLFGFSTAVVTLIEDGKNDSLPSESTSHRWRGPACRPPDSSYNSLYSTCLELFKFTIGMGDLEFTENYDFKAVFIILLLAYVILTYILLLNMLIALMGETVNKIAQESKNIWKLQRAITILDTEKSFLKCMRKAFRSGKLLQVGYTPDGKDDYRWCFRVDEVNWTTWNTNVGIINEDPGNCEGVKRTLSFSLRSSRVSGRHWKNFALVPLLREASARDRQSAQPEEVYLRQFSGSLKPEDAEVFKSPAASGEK
Experiment: Inhibition of human TRPV1 overexpressed in BEAS-2B cells assessed as residual activity at 250 uM after 30 mins by Fluo-4 AM fluorescence assay
Type: cell-based

{"columns": ["molecule", "Activity, %"],
 "data": [
  ["CC(=O)Oc1ccccc1C(=O)O", 91],
  ["CC(C(=O)O)c1ccc(-c2ccccc2)c(F)c1 (configuration not stated)", 108],
  ["CC(C)Cc1ccc(C(C)C(=O)O)cc1 (configuration not stated)", 112],
  ["O=C(O)c1ccccc1Nc1cccc(C(F)(F)F)c1", 36],
  ["CC(C(=O)O)c1cccc(Oc2ccccc2)c1 (configuration not stated)", 121],
  ["O=C(c1ccccc1)c1ccc2n1CCC2C(=O)O (configuration not stated)", 110],
  ["CC(C(=O)O)c1cccc(C(=O)c2ccccc2)c1 (configuration not stated)", 108]
]}
